The values you see were collected from paper PMC11329928.

- Tested on: S. pneumoniae D39
- Format: cell-based, Streptococcus pneumoniae
- MEASUREMENT PARAMETERS: maximum variation in viability; 1 h treatment, C + Y, 37°C, Hill fit
Where a name gives a salt, the structure may show the parent alone.
OBSERVATION TYPE: Δlogmax, S. pneumoniae D39
Remember to follow the number with its unit.

As a guide, the following entries are already answered.
CCCCCCCCCCCCCCCCCCNC(=O)[C@H](CCC(=O)O)NC(=O)[C@H]1CCCN1C(=O)[C@H](CCC(=O)O)NC(=O)OCc1ccccc1 [DICAM 19, Cbz-Glu- Pro -Glu-NH-C18H37] : 3.0 ± 0.2 logarithmic units
CCCCCCCCCCCCCCCCNC(=O)[C@H](CCC(=O)O)NC(=O)[C@H]1CCCN1C(=O)[C@H](CC(N)=O)NC(=O)OCc1ccccc1 [DICAM 10, Cbz-Asn- Pro -Glu-NH-C16H33] : 3.13 ± 0.06 logarithmic units
CCCCCCCCCCCCCCCCCCNC(=O)[C@H](CCC(=O)O)NC(=O)[C@H]1CCCN1C(=O)[C@H](C)N [DICAM 4, Ala- Pro -Glu-NH-C18H37 ·HCl] : 6.0 ± 0.4 logarithmic units
CCCCCCCCCCCCCCCCCCNC(=O)[C@H](CCC(=O)O)NC(=O)[C@H]1CCCN1C(=O)[C@@H](N)CC(N)=O [DICAM 2, Asn- Pro -Glu-NH-C18H37 ·HCl] : 4.6 ± 0.1 logarithmic units

Field: next compound
Q. Look up and report measured Δlogmax, S. pneumoniae D39 for this entry: CCCCCCCCCCCCCCCCCCNC(=O)[C@H](CCC(=O)O)NC(=O)[C@H]1CCCN1C(=O)[C@@H](N)CCC(=O)O [DICAM 20, Glu- Pro -Glu-NH-C18H37 · HCl]
A. 3.0 ± 0.1 logarithmic units
